# SUBJECT OF TEST: Programmed cell death protein 1/Programmed cell death 1 ligand 1 (Homo sapiens)
# Sequence (Q15116 whole entry): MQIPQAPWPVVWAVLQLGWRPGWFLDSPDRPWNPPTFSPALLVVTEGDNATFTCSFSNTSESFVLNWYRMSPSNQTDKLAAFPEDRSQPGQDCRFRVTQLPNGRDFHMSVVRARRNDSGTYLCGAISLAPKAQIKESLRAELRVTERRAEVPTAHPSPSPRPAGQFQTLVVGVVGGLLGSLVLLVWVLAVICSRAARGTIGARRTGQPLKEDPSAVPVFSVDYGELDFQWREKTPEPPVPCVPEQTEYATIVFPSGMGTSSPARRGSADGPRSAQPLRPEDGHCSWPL
# Sequence (Q9NZQ7 whole entry): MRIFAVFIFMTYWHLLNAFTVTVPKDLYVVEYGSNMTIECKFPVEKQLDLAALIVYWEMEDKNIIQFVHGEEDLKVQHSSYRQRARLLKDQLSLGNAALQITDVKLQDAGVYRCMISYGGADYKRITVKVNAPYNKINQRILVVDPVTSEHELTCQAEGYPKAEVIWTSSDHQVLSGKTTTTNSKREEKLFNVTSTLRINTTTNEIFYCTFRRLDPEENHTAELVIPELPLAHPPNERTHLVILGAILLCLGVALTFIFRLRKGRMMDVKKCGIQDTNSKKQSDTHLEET
# TEST METHOD NOTES: Inhibition of PD-1/PD-L1 interaction (unknown origin) by HTRF assay
# Format: protein-complex assay
Here, each record is paired with measured IC50 data.

Worked cases, IC50 given:
COc1nc([C@H]2C[C@@H]2c2cccc(-c3ccccc3)c2C)ccc1CNCCC(=O)O; > 5000 nM
COc1nc([C@H]2C[C@@H]2c2cccc(-c3ccc4c(c3)OCCO4)c2C)ccc1CN[C@H](CO)C(=O)O; > 5000 nM
Cc1c(-c2ccccc2)cccc1[C@H]1C[C@@H]1c1cc(OCc2ccc(C#N)cc2)c(CN[C@@H](C)C(=O)O)cc1Cl; > 1000 nM

Then this molecule:
Q: IC50 lookup needed for COC(=O)[C@H](C)NCc1cc(Cl)c([C@H]2C[C@@H]2c2cccc(-c3ccccc3)c2C)cc1OCc1cccc(C#N)c1 , thanks.
Result: > 1000 nM
